# experimental_target: BTK (Homo sapiens, UniProt Q06187)
# Sequence (Q06187 402-655 limits assumed): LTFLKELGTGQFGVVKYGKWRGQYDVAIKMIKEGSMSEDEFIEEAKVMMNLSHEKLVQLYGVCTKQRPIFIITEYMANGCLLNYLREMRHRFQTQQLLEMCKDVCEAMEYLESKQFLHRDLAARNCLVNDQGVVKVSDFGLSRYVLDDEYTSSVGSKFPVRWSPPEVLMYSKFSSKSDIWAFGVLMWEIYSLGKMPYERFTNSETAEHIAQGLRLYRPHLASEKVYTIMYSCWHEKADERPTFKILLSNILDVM
# assay_remarks: biochemical
# run_conditions: read-out: BTK inhibition (%), 0.75 uM BTK, […] probe 3l, 15 min preincubation
Let's look at some compounds and their measured inhibition at 10 µM.

compound: CCC(C)(C)C(=O)O[C@H]1C[C@@H](C)C=C2C=C[C@H](C)[C@H](CC[C@@H]3C[C@@H](O)CC(=O)O3)[C@H]21 [PCM-0214653]
value_unit: %
inhibition at 10 µM: -13.1
--
compound: COc1ccc(CCNCc2ccc(OCc3ccc(Cl)nc3)c(OC)c2)cc1OC [PCM-0215426]
value_unit: %
inhibition at 10 µM: -27.6
--
compound: CN[C@H]1CN(c2ccc3c(=O)c(C(=O)O)cn(-c4nccs4)c3n2)C[C@@H]1OC [PCM-0215713]
value_unit: %
inhibition at 10 µM: -17
--
compound: CCCN(CCc1cccs1)[C@H]1CCc2c(O)cccc2C1 [PCM-0214799]
value_unit: %
inhibition at 10 µM: 14.8
--
compound: C/C=C/C=C/C(=O)O [PCM-0215158]
value_unit: %
inhibition at 10 µM: 0
--
compound: CCCC(=O)O [PCM-0095272]
value_unit: %
inhibition at 10 µM: 0
--
compound: CC(=O)CCc1ccccc1 [PCM-0216622]
value_unit: %
inhibition at 10 µM: -6.9
--
compound: COc1cc(O)c2c(c1)oc(=O)c1c3cc(O)c(O)cc3oc21 [PCM-0216602]
value_unit: %
inhibition at 10 µM: 47.9
--
compound: Cc1cc(C)n(C)n1 [PCM-0215908]
value_unit: %
inhibition at 10 µM: -6.9
--
compound: CN(NC(=O)CC(=O)NN(C)C(=S)c1ccccc1)C(=S)c1ccccc1 [PCM-0094978]
value_unit: %
inhibition at 10 µM: -6.9
--
compound: CC(C)CCn1c(CN2CCN(C(=O)C3CC3)CC2)nc2c1c(=O)n(C)c(=O)n2C [PCM-0215566]
value_unit: %
inhibition at 10 µM: -13.9
--
compound: CN(C(=O)CNC(=O)/C=C/c1cccc(Cl)c1)C1CCS(=O)(=O)CC1 [PCM-0215630]
value_unit: %
inhibition at 10 µM: -13.9
--
compound: COc1c(N2CCNC(C)C2)c(F)cc2c(=O)c(C(=O)O)cn(C3CC3)c12 (stereo not shown) [PCM-0086315]
value_unit: %
inhibition at 10 µM: -40.5
--
compound: Cc1nc(-c2cn3c(n2)-c2ccc(-c4cnn(C(C)(C)C(N)=O)c4)cc2OCC3)n(C(C)C)n1 [PCM-0215518]
value_unit: %
inhibition at 10 µM: 0
--
compound: O=C(COc1cccc2c(=O)[nH]ccc12)c1ccccc1 [PCM-0095624]
value_unit: %
inhibition at 10 µM: 5.4
--
compound: Cc1cc(-c2ncc(CC(=O)Nc3ccc(-c4cnccn4)cn3)cc2C)ccn1 [PCM-0215274]
value_unit: %
inhibition at 10 µM: 1.5
--
compound: CCc1cc2c(cc1CC)CC(NC[C@H](O)c1ccc(O)c3[nH]c(=O)ccc13)C2 [PCM-0095564]
value_unit: %
inhibition at 10 µM: 19.5
--
compound: C#C[C@]1(O)CC[C@H]2[C@@H]3CCC4=CC(=O)CC[C@@H]4[C@H]3C(=C)C[C@@]21CC [PCM-0214842]
value_unit: %
inhibition at 10 µM: 3.1
--
compound: CN(C)CCC(c1ccc(Br)cc1)c1ccccn1 (stereo not shown) [PCM-0064576]
value_unit: %
inhibition at 10 µM: -19.3
--
compound: CCc1ccc(-c2nc(CSCC(=O)NCCc3ccccc3)c(C)o2)cc1 [PCM-0215904]
value_unit: %
inhibition at 10 µM: -4.6
--
compound: CCCCC1=NC2(CCCC2)C(=O)N1Cc1ccc(-c2ccccc2-c2nn[nH]n2)cc1 [PCM-0090383]
value_unit: %
inhibition at 10 µM: 4.3
--
compound: OC[C@@H](O)CN1CCN(c2ccccc2)CC1 [PCM-0214752]
value_unit: %
inhibition at 10 µM: -22.8
--
compound: CC(C)=CCC[C@](C)(O[C@@H]1O[C@H](CO[C@@H]2O[C@@H](CO)[C@H](O)[C@H]2O)[C@@H](O)[C@H](O)[C@H]1O)[C@H]1CC[C@]2(C)[C@@H]1[C@H](O)C[C@@H]1[C@@]3(C)CC[C@H](O[C@@H]4O[C@H](CO)[C@@H](O)[C@H](O)[C@H]4O[C@@H]4O[C@H](CO)[C@@H](O)[C@H](O)[C@H]4O)C(C)(C)[C@@H]3CC[C@]12C [PCM-0216509]
value_unit: %
inhibition at 10 µM: -10
--
compound: CC(=O)O[C@]1(C(C)=O)CC[C@H]2[C@@H]3CCC4=CC(=O)CCC4=C3[C@@H](c3ccc(N(C)C)cc3)C[C@@]21C [PCM-0095563]
value_unit: %
inhibition at 10 µM: 38.9
--
compound: COC(=O)c1ccc2c(c1)[nH]c1ncnc(NCCCN3CCCCC3)c12 [PCM-0215451]
value_unit: %
inhibition at 10 µM: -0.8
--
compound: O=C(Nc1ccccc1)Nc1ccc(-c2ccc(C(=O)[C@@H]3CCC[C@H]3C(=O)O)cc2)cc1 [PCM-0095351]
value_unit: %
inhibition at 10 µM: 22.6
--
compound: COc1ccc([C@@H]2CC(=O)c3c(O)cc(O)cc3O2)cc1O [PCM-0091279]
value_unit: %
inhibition at 10 µM: -11.7
--
compound: O=C(O)C(=O)CBr [PCM-0216160]
value_unit: %
inhibition at 10 µM: 6.2
--
compound: O=C(O)COCCN1CCN([C@H](c2ccccc2)c2ccc(Cl)cc2)CC1 [PCM-0215119]
value_unit: %
inhibition at 10 µM: -6.2
--
compound: COc1cc(C=O)ccc1OC(C)=O [PCM-0215077]
value_unit: %
inhibition at 10 µM: -10.1
--
compound: NCCC[C@H](N)C(=O)O [PCM-0216253]
value_unit: %
inhibition at 10 µM: -3.4
--
compound: Cn1cc(/C=C/C(=O)c2cccc(F)c2)cc1/C=C/C(=O)NO [PCM-0095164]
value_unit: %
inhibition at 10 µM: 34.2
--
compound: CC(C)(C)NC[C@H](O)COc1nsnc1N1CCOCC1 [PCM-0064983]
value_unit: %
inhibition at 10 µM: -3.9
--
compound: CC1(C)O[C@H]2CC(=O)OC[C@]23[C@H]2CC[C@@]4(C)[C@H](c5ccoc5)OC(=O)[C@H]5O[C@]54[C@]2(C)C(=O)C[C@@H]13 [PCM-0214679]
value_unit: %
inhibition at 10 µM: -3.9
